test: Cytotoxicity against mouse JC cells assessed as inhibition of cell survival after 48 hrs by SRB assay; format: functional, cell-based
observable: log10 IC50 (log10 of the value in nM)
Please be aware that the numbers have been log10-transformed from IC50 in nM.

smiles_structure=Cc1nc(N)nc2c1c(Sc1ccccc1)cn2Cc1ccccc1 recorded_value=3.60
smiles_structure=COc1cc(CCc2cn(Cc3cc(OC)c(OC)c(OC)c3)c3nc(N)nc(C)c23)cc(OC)c1OC recorded_value=3.00

// recorded log10 IC50 for Cc1nc(N)nc2c1c(Sc1ccc(Cl)cc1)cn2Cc1ccccc1 : 3.88

// recorded log10 IC50 for CC(=O)O[C@H]1C(=O)[C@@]2(C)[C@H]([C@H](OC(=O)c3ccccc3)[C@]3(O)C[C@H](OC(=O)[C@H](O)[C@@H](NC(=O)c4ccccc4)c4ccccc4)C(C)=C1C3(C)C)[C@]1(OC(C)=O)CO[C@@H]1C[C@@H]2O : 2.18

// recorded log10 IC50 for COc1ccccc1Cn1cc(CCc2cc(OC)c(OC)c(OC)c2)c2c(C)nc(N)nc21 : 3.00

// recorded log10 IC50 for COc1ccccc1Cn1cc(Sc2ccccc2OC)c2c(C)nc(N)nc21 : 3.95

// recorded log10 IC50 for COc1cc(Cn2cc(CCc3cc(OC)c(OC)c(OC)c3)c3c(C)nc(N)nc32)cc(OC)c1 : 3.48

----------
assay: Cytotoxicity against mouse JC cells assessed as inhibition of cell survival after 48 hrs by SRB assay; assay type: functional, cell-based
observable: pIC50
To interpret pIC50, take it as minus log10 of a concentration measured in moles per litre.

Examples with answers:
smiles_structure=COc1ccc(Sc2cn(Cc3ccccc3)c3nc(N)nc(C)c23)cc1 observable=pIC50 recorded_value=5.00
smiles_structure=COc1ccccc1Sc1cn(Cc2cc(OC)c(OC)c(OC)c2)c2nc(N)nc(C)c12 observable=pIC50 recorded_value=5.52
smiles_structure=COc1ccccc1Sc1cn(Cc2ccccc2)c2nc(N)nc(C)c12 observable=pIC50 recorded_value=4.96
smiles_structure=COc1ccc(Cn2cc(CCc3cc(OC)c(OC)c(OC)c3)c3c(C)nc(N)nc32)cc1OC observable=pIC50 recorded_value=5.82
smiles_structure=COc1ccc(Cn2cc(CCc3cc(OC)c(OC)c(OC)c3)c3c(C)nc(N)nc32)cc1 observable=pIC50 recorded_value=6.22

// recorded pIC50 for COc1ccc(Cn2cc(Sc3ccccc3OC)c3c(C)nc(N)nc32)cc1 : 5.60

// recorded pIC50 for COc1cccc(Cn2cc(CCc3cc(OC)c(OC)c(OC)c3)c3c(C)nc(N)nc32)c1 : 5.85
